All values here come from patent US7585859B2.

Measured target: full-length human PDE4B2 isozyme (Homo sapiens, UniProt Q07343)
Construct: The full-length human PDE4B2 isozyme; His6 (N); TEV cleavage site (N); made in house; host or cells: baculovirus infected insect cells (unpurified lysate)
Sequence (Q07343 1-564 isoform Q07343-2): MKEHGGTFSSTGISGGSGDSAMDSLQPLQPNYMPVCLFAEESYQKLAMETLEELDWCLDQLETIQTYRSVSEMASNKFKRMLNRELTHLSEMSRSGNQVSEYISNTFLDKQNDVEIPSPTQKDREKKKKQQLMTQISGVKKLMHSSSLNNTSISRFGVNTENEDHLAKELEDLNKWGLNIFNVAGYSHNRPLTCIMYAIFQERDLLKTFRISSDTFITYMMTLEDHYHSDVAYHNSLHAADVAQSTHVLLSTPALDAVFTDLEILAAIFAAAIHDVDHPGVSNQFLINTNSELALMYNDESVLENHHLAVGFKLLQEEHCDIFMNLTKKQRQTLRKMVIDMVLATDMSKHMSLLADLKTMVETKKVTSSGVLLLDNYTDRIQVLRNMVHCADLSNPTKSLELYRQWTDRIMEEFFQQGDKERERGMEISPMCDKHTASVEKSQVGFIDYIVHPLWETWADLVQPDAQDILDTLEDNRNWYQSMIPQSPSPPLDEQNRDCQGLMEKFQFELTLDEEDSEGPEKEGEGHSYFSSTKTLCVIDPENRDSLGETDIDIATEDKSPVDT
Assay text: PDE4 IC50 determination by Scintillation Proximity Assay, PDE4B2
Assay type: biochemical
Conditions: Table 1B, Formula I compounds; read-out: IC50 PDE4B2
pIC50: −log10 of the molar value.
Reported pIC50 values follow for various molecules

The examples below pair each entry with its known result.
Molecule | Measured target | pIC50
COc1ccc(C(=O)c2sc(Nc3cccc(C#N)c3)c(C#N)c2N)c(OC)c1 | full-length human PDE4B2 isozyme (Homo sapiens, UniProt Q07343) | > 5.00
Cc1onc(-c2ccccc2)c1C(=O)c1sc(NC2CCCC2)c(C#N)c1N | full-length human PDE4B2 isozyme (Homo sapiens, UniProt Q07343) | > 5.00
Cc1c(NC2CCCC2)sc(C(=O)c2cc(-c3ccccc3)no2)c1N | full-length human PDE4B2 isozyme (Homo sapiens, UniProt Q07343) | > 5.00
Cc1ccc(C(=O)c2sc(Nc3ccccc3)c(C#N)c2N)cc1 | full-length human PDE4B2 isozyme (Homo sapiens, UniProt Q07343) | > 5.00
COc1ccccc1Nc1sc(C(=O)c2ccccc2)c(N)c1C#N | full-length human PDE4B2 isozyme (Homo sapiens, UniProt Q07343) | > 5.00
N#Cc1c(NC2CCCC2)sc(C(=O)c2cc(-c3ccc(N)cc3)no2)c1N | full-length human PDE4B2 isozyme (Homo sapiens, UniProt Q07343) | > 5.00
COc1ccc(Nc2sc(C(=O)c3ccc(C)cc3C)c(N)c2C#N)cc1 | full-length human PDE4B2 isozyme (Homo sapiens, UniProt Q07343) | > 5.00
CSc1cccc(Nc2sc(C(=O)c3ccccc3Cl)c(N)c2C#N)c1 | full-length human PDE4B2 isozyme (Homo sapiens, UniProt Q07343) | > 5.00

Ask: Form field: reported pIC50 of N#Cc1cccc(Nc2sc(C(=O)c3ccc(-c4ccccn4)s3)c(N)c2C#N)c1
Reply: > 5.00

Ask: Form field: reported pIC50 of CC(C)CNc1sc(C(=O)c2ccc(Oc3ccccc3)cc2)c(N)c1C#N
Reply: > 5.00

Ask: Form field: reported pIC50 of CCc1ccccc1Nc1sc(C(=O)c2cc(OC)ccc2OC)c(N)c1C#N
Reply: > 5.00

Ask: Form field: reported pIC50 of CCC(C)Nc1sc(C(=O)c2cc(-c3ccccc3)no2)c(N)c1C(N)=O (stereo not shown)
Reply: > 5.00
